Recorded EC50 by entry
Target: human RXFP1 (Homo sapiens)
Construct: expressed in transfected cells
Sequence (Q9HBX9 1-757): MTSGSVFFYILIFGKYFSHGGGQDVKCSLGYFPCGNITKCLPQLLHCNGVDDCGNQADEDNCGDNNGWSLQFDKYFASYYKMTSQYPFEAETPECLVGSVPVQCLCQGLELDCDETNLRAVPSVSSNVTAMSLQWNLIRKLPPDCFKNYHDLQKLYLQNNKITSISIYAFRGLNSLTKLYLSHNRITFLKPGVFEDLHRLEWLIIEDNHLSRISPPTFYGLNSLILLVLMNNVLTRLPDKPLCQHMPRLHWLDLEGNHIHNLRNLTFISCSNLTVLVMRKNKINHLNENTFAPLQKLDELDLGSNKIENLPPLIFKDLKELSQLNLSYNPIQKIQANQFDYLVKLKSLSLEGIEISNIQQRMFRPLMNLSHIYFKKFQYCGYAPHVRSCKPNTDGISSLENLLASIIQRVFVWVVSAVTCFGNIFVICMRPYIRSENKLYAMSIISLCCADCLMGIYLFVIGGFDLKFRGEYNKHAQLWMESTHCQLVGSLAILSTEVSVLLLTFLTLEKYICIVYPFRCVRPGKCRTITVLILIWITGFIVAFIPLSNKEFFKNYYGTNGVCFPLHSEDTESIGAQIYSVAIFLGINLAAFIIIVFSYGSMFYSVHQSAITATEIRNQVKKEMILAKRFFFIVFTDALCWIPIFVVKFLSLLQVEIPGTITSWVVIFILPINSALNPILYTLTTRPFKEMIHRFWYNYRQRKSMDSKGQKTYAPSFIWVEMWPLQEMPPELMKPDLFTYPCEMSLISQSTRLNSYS
Experiment: RXFP1 cAMP assay (hRXFP1 HEK293 cAMP assay, HTRF)
Format: cell-based
Settings: HEK293 cells stably expressing human RXFP1, 30 min at room temperature, read-out: cAMP hRXFP1 HEK293 Assay EC50
The response must be a number in nM with no trailing unit.

INSERT INTO assay_data (compound, numeric_readout) VALUES
  ('COc1ccc(C2=NOC3COCC23)cc1C(=O)N[C@H]1[C@@H](C(=O)NCc2ccccc2OC(F)F)[C@H]2CC[C@@H]1/C2=C\C1CC1 (some centres unmarked)', 169),
  ('CN(C)c1c(Cl)cc(C2=NOC3COCC23)cc1C(=O)N[C@H]1[C@@H](C(=O)Nc2ccc(F)c(C(F)(F)F)c2)[C@H]2CC[C@@H]1/C2=C\C(F)(F)F (single isomer, unassigned) [compound 556]', 41.7),
  ('COc1ccc(-c2cc(C(C)O)on2)cc1C(=O)N[C@@H]1C2CCC(/C2=C/C2CC2)[C@@H]1C(=O)Nc1ccc(F)c(C(F)(F)F)c1 (some centres unmarked)', 11),
  ('COc1ccc(-c2cnn(CC(=O)O)c2)cc1C(=O)N[C@@H]1C2CCC(/C2=C/c2ccccc2)[C@@H]1C(=O)Nc1ccc(F)c(C(F)(F)F)c1 (some centres unmarked)', 62),
  ('COc1ccc(C2CC3CNS(=O)(=O)C32)cc1C(=O)N[C@H]1[C@@H](C(=O)Nc2ccc(F)c(C(F)(F)F)c2)[C@H]2CC[C@@H]1/C2=C\C1CC1 (single isomer, unassigned) [compound 733]', 6.3);

Moving on to the next compound.
Query string: EC50 for COC(=O)N1Cc2cccc(-c3ccc(OC)c(C(=O)N[C@@H]4C5CCC(/C5=C/C5CC5)[C@@H]4C(=O)Nc4ccc(F)c(C(F)(F)F)c4)c3)c2C1 (some centres unmarked) ?
Result string: 3.1

Source of measurements: patent US20250221966A1
